# maps each entry to its EC50 (read off the curve)
# TEST_SYSTEM: T1, recombinant cynomolgus IL-25 protein (cynomolgus monkey, UniProt Q9H293 33-177 (human entry), limits assumed)
# T1 construct: Bought (Sino Biological Inc, customized order); also called cyno IL-25
# T1 chain: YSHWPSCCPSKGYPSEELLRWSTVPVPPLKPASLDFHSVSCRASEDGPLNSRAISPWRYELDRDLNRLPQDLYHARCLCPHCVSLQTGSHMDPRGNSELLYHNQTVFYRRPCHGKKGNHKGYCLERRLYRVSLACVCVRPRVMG
# PROCEDURE_DETAILS: ELISA: recombinant cynomolgus IL-25 coated on the plate, detection with goat-anti-human Kappa Light Chain antibody HRP, ABTS, OD 405

IL25Ab1 (antibody, V domains shown) VH: QVQLKESGPGLVAPSQSLSITCTVSGFSLTDYGINWVRQPPGKGLEWLGMIWGDGVTHYNSVLKSRLSISKDNSMSQIFLKMNSLQTDDTARYYCARTLFYDGTLYYYAMDYWGQGTSVTVSS VL: QIVLTQSPATMSASPGEKVTMTCSASSSVTYMYWYQQKTGSSPRLLIYDTPNLASGVPVRFSGSGSGTSYSLTISRVEAEDAATYYCQQWSSYPHTWTFGGGTKLEIK ... ~100 pM

Shifting focus to the binder that follows.
GET /value?item= IL25Ab5 (antibody, V domains shown) VH: QVQLQQWGAGLLKPSETLSLTCAVYGGSFSAYYWSWIRQSPGKGLEWIGEINHGGNTNYSPSLKSRVTISVDTSKSQFSLKLSSVTAADTAAYYCARGPGITSWAFDFWDQGTMVTVSS VL: DIQMTQSPSSLSASVGDRVTIACQASQDINNYLNWYQQKPGKAPKLLIYDASNLETGVPSRFSGNGSGTDFTFTISSLQPEDIATFYCQQYDTLPYTFGQGTKLEIR &field=EC50 (read off the curve) returns ~200 pM
